Molecular target: T1, human PERP with C-terminal myc-His tag expressed on CHO/DG44 cells from plasmid pcPERPmH (human, UniProt Q96FX8 1-193)
T1 construct: The gene was cloned from plasmid HEMBA 1006335 (GenBank AK 074585); also called PERP/CHO cell; CHO/hPERP
Experiment: flow cytometry on CHO/PERP (KC1359)

BINDER: anti-PERP humanized antibody HV4LV4 (antibody, V domains shown) VH: QVQLQESGPGLVKPSQTLSLTCTVSGFSISTEYAWNWIRQFPGKGLEWIGYIGYTGRTNYAPSLKSRITISRDTSKNQFSLQLSSVTAEDTATYYCTRMDYWGQGTLVTVSS VL: DIQMTQSPSSLSASVGDRVTITCSASSSVSYMHWFQQKPGKAPKLWIYSTSNLASGVPSRFSGSGSGTDYTLTISSMQPEDFATYYCQQRSSYPPTFGQGTKVEIK
binding result: binds
//
BINDER: anti-PERP humanized antibody HV4LV3 (antibody, V domains shown) VH: QVQLQESGPGLVKPSQTLSLTCTVSGFSISTEYAWNWIRQFPGKGLEWIGYIGYTGRTNYAPSLKSRITISRDTSKNQFSLQLSSVTAEDTATYYCTRMDYWGQGTLVTVSS VL: DIQMTQSPSSLSASVGDRVTITCSASSSVSYMHWYQQKPGKAPKLWIYSTSNLASGVPSRFSGSGSGTDYTLTISSMQPEDFATYYCQQRSSYPPTFGQGTKVEIK
binding result: binds
//
BINDER: anti-PERP humanized antibody HV8LV7 (antibody, V domains shown) VH: QVQLQESGPGLVKPSQTLSLTCTVSGFSITTEYAWNWIRQFPGNRLEWMGYIGYTGRTNYAPSLKSRITISRDTSKNQFSLQLSSVTAEDTATYYCTRMDYWGQGTLVTVSS VL: DIVMIQSPSSLSASVGDRVTITCSASSSVSYMHWFQQKPGKSPKLWIYSTSNLASGVPSRFSGSGSGTDYTLTISSMQPEDFATYYCQQRSSYPPTFGQGTKVEIK
binding result: binds
//
BINDER: anti-PERP humanized antibody HV4LV7 (antibody, V domains shown) VH: QVQLQESGPGLVKPSQTLSLTCTVSGFSISTEYAWNWIRQFPGKGLEWIGYIGYTGRTNYAPSLKSRITISRDTSKNQFSLQLSSVTAEDTATYYCTRMDYWGQGTLVTVSS VL: DIVMIQSPSSLSASVGDRVTITCSASSSVSYMHWFQQKPGKSPKLWIYSTSNLASGVPSRFSGSGSGTDYTLTISSMQPEDFATYYCQQRSSYPPTFGQGTKVEIK
binding result: binds

These measurements were taken from patent US20080267953A1.
